Reference source: ChEMBL document CHEMBL3988442

- STUDY SYSTEM: Sialic acid-binding Ig-like lectin 9 (Homo sapiens)
- EXPERIMENT NOTES: Hs-Siglec9 ALPHAscreen SOP 20170721
- Parameters: scale not given: direction of the effect not stated beside the values
- STUDY CONDITIONS: 10 µM
METRIC: Percent Effect (%)
Express it in %; write the number only.

Some entries whose results are on file:
1) CCN1CCC2(CC1)CC(Nc1ncccn1)CO2 (centres undefined) :: 1.3
2) Cn1cc(CN2C[C@@H]3[C@@H](C2)OCC(=O)N3Cc2ccncc2)cn1 :: -1.61
3) Cc1cc(CN2C[C@@H]3CCCO[C@@H]3[C@H](Nc3ccccn3)C2)no1 :: 16.5

INPUT: Return Percent Effect measured with Sialic acid-binding Ig-like lectin 9 (Homo sapiens) given this compound: O=C(c1cccnc1)N1C[C@@H]2CC[C@H](C1)N(Cc1ncc[nH]1)C2
OUTPUT: 6.45

INPUT: Return Percent Effect measured with Sialic acid-binding Ig-like lectin 9 (Homo sapiens) given this compound: CC(C)N1CCc2c(CN(C)Cc3ccco3)cncc2C1
OUTPUT: 16.7

INPUT: Return Percent Effect measured with Sialic acid-binding Ig-like lectin 9 (Homo sapiens) given this compound: Cc1ccc(N2CCO[C@H]3CN(Cc4ccncc4)C[C@H]32)nn1
OUTPUT: -2.84

INPUT: Return Percent Effect measured with Sialic acid-binding Ig-like lectin 9 (Homo sapiens) given this compound: COc1ccc(C2SCC(=O)Nc3ccsc32)cc1 (centres undefined)
OUTPUT: 5.11

INPUT: Return Percent Effect measured with Sialic acid-binding Ig-like lectin 9 (Homo sapiens) given this compound: O=C(Nc1cccnc1)[C@H]1COC[C@H]2CN(C3CCCC3)C[C@H]21
OUTPUT: 1.44

INPUT: Return Percent Effect measured with Sialic acid-binding Ig-like lectin 9 (Homo sapiens) given this compound: CN(C)c1nccc(N2CCO[C@H]3CN(Cc4ccsc4)C[C@H]32)n1
OUTPUT: 8.35

---

- STUDY SYSTEM: Arginase-2, mitochondrial (Homo sapiens)
- EXPERIMENT NOTES: in vitro enzyme assay to detect the production of urea directly proportional to the activity of Arginase II; further: in the data most compounds retested in dose-response had high values
- Assay type: functional
- Parameters: scale not given: direction of the effect not stated beside the values
- STUDY CONDITIONS: 33.3 µM
METRIC: Percent Effect (%)
Express it in %; write the number only.

INPUT: Quick one: Percent Effect for c1ccc(O[C@H]2CC[C@H]3[C@H]2OCCN3Cc2nccs2)nc1 ?
OUTPUT: -41.4

INPUT: Quick one: Percent Effect for Cc1oc(-c2ccco2)nc1CC(=O)N1CCN(CC(C)(C)O)CC1 ?
OUTPUT: 5.68

INPUT: Quick one: Percent Effect for O=C1CC[C@H]2[C@H](CCN2Cc2ccccn2)N1CC1CCOCC1 ?
OUTPUT: 2.74

INPUT: Quick one: Percent Effect for COCC1CC2(CCN(Cc3ccccn3)CC2)CN1C(C)C (stereo unspecified) ?
OUTPUT: -8.1

INPUT: Quick one: Percent Effect for Cc1ccc(CN2CCC3(CC2)C(=O)N(C)c2ccccc23)s1 ?
OUTPUT: 2.08

INPUT: Quick one: Percent Effect for O=C1OCCC1N1CCN(C(=O)Cc2c[nH]c3ccccc23)CC1 (stereo unspecified) ?
OUTPUT: -9.62

---

Let's look at some compounds and their measured Percent Effect.
- STUDY SYSTEM: Shiga toxin 2 (Escherichia coli O157:H7) (UniProt P09385+P09386)
- EXPERIMENT NOTES: E. coli 0.157:H7 Shiga Toxin SOP - stx2 screening assay
- Format: functional
- Parameters: scale not given: direction of the effect not stated beside the values
- STUDY CONDITIONS: 30 µM
Express it in %; write the number only.

Some entries whose results are on file:
1. Cc1ccc(C(=O)N2CCC3(CC2)CC(N2CCCC2)C3)cc1 :: -9.41
2. Clc1snnc1CN1CCOC(CNc2cccnn2)C1 (stereo unspecified) :: -5.91
3. Cc1cccnc1NC(=O)C(C)Cn1nc(C(F)(F)F)cc1C (stereo unspecified) :: -1.69

Attention now turns to another entry.
INPUT: Quick one: Percent Effect for OCC1CCCN1c1cc(NCc2ccc(Cl)s2)ncn1 (stereo unspecified) ?
OUTPUT: -31.6

---

Let's look at some molecules and their measured Percent Effect.
- STUDY SYSTEM: Shiga toxin 2 (Escherichia coli O157:H7) (UniProt P09385+P09386)
- EXPERIMENT NOTES: E. coli 0.157:H7 Shiga Toxin SOP - stx2 screening assay
- Assay type: functional
- Design: scale not given: direction of the effect not stated beside the values
- STUDY CONDITIONS: 30 µM
Express it in %; write the number only.

Some entries whose results are on file:
1) Cn1cnnc1C1CCCN(C(=O)NCCNc2ccccn2)C1 (configuration not stated) :: 19
2) Cc1nc(C)n(CC2CCCN(CCOc3cccc(C#N)c3)C2)n1 (configuration not stated) :: 12.2
3) CC(C)CN1CCC2(C1)CN(c1ncccn1)C2 :: -15.1
4) O=C(C1CCCc2[nH]ncc21)N1CCCCCC1 (configuration not stated) :: 1.51
5) COc1ccccc1OCC(=O)Nc1ncccc1OC(F)F :: -12

INPUT: Return Percent Effect measured with Shiga toxin 2 (Escherichia coli O157:H7) (UniProt P09385+P09386) given this molecule: CCO[C@@H]1CO[C@@]2(CCCN(S(=O)(=O)c3cccnc3)C2)C1
OUTPUT: -20

INPUT: Return Percent Effect measured with Shiga toxin 2 (Escherichia coli O157:H7) (UniProt P09385+P09386) given this molecule: CCOc1ncccc1NC(=O)c1cc(C)c(C)s1
OUTPUT: 3.75

INPUT: Return Percent Effect measured with Shiga toxin 2 (Escherichia coli O157:H7) (UniProt P09385+P09386) given this molecule: OCC1CCCN1c1cc(N2CCN(c3ccccn3)CC2)ncn1 (configuration not stated)
OUTPUT: 32.6

---

- STUDY SYSTEM: Aspartate--tRNA(Asp/Asn) ligase (Mycobacterium tuberculosis (strain ATCC 25618 / H37Rv)) (UniProt P9WFW3); further: in the data most compounds retested in dose-response had high values
- Sequence (P9WFW3 whole entry): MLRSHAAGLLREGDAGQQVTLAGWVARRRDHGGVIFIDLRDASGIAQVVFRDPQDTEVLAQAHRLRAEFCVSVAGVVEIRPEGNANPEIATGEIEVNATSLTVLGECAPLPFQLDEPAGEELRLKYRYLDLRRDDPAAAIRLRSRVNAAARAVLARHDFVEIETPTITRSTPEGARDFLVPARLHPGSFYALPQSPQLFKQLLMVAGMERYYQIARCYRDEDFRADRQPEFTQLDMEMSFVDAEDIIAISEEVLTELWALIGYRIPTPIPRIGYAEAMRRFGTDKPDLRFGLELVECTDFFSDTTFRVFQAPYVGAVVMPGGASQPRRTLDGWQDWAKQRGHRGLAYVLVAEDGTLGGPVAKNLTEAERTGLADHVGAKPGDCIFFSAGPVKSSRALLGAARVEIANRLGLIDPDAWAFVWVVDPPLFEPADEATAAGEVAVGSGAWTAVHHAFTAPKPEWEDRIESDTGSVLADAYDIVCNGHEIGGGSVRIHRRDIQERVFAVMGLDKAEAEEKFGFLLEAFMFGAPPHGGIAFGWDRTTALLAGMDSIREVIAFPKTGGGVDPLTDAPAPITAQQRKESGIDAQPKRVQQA
- EXPERIMENT NOTES: Assay for Asp RNA synthetase-1 from Mycobacterium tuberculosis
- Assay type: functional
- Set-up: scale not given: direction of the effect not stated beside the values
- STUDY CONDITIONS: 30 µM
METRIC: Percent Effect
Dear colleague, please send the value followed by its unit.

Some entries whose results are on file:
1. c1cncc(OC[C@@H]2CCC[C@@]23CNCCO3)c1 :: 1.15%
2. CCOc1ccccc1C(CC(=O)Nc1ccccc1F)NC(C)=O (stereo unspecified) :: -4.12%

INPUT: Quick one: Percent Effect for Cn1ncc2c(N3CCN(C(N)=O)CC3)nc(C3CCCC3)nc21 ?
OUTPUT: 1.25%

INPUT: Quick one: Percent Effect for Cc1ccc(C(=O)N2CCC3(CCN(C(=O)c4cccnc4)C3)CC2)o1 ?
OUTPUT: 5.85%

INPUT: Quick one: Percent Effect for Cc1nnc(CCNC2CCN(c3ncnc4c(C)csc34)CC2)s1 ?
OUTPUT: 0.208%

INPUT: Quick one: Percent Effect for O=C(c1ccccc1-n1cccn1)N1CCCN(c2cccnn2)CC1 ?
OUTPUT: 0.98%

INPUT: Quick one: Percent Effect for COc1ccc(Br)c(C(=O)NCC2CCN(S(=O)(=O)C3CC3)CC2)c1 ?
OUTPUT: -8.22%

INPUT: Quick one: Percent Effect for CN(Cc1cccs1)C(=O)CN1CCCC1Cn1cncn1 (stereo unspecified) ?
OUTPUT: 5.56%

INPUT: Quick one: Percent Effect for CCOc1ccc(CN2CCN(C(=O)c3ccc(C)n3C)CC2)cc1 ?
OUTPUT: 2.42%

INPUT: Quick one: Percent Effect for CCCc1nc(C)c(C(=O)NS(=O)(=O)c2ccc(C#N)cc2)s1 ?
OUTPUT: 0.836%

INPUT: Quick one: Percent Effect for Cc1nc(CN(C)C2CCN(Cc3ccc4c(c3)OCCO4)C2)no1 (stereo unspecified) ?
OUTPUT: -4.04%

---

Let's look at some molecules and their measured Percent Effect.
- STUDY SYSTEM: Shiga toxin 2 (Escherichia coli O157:H7) (UniProt P09385+P09386)
- EXPERIMENT NOTES: E. coli 0.157:H7 Shiga Toxin SOP - stx2 screening assay
- Type: functional
- Set-up: scale not given: direction of the effect not stated beside the values
- STUDY CONDITIONS: 30 µM
Express it in %; write the number only.

Some entries whose results are on file:
1) CS(=O)(=O)NCC1CCCCN1C(=O)Nc1cccnc1N1CCCC1 (stereo unspecified) :: 4.39
2) CC(C)=CCN1C[C@H]2CC[C@@H]1CN(C(=O)c1c[nH]c(=O)c(Cl)c1)C2 :: -38
3) Cc1noc(C)c1CN1CCN(Cc2nccn2C)C(C)C1 (stereo unspecified) :: 1.27

INPUT: Quick one: Percent Effect for CCN1CC2(CC1=O)CN(C(=O)c1ccco1)CCN(C(=O)N(C)C)C2 (stereo unspecified) ?
OUTPUT: -12.4

INPUT: Quick one: Percent Effect for COc1cccc(N2CCN(CC(O)c3cc(C)ccc3C)CC2)c1 (stereo unspecified) ?
OUTPUT: -19.7

INPUT: Quick one: Percent Effect for Cn1cnnc1C1CCN(C(=O)CCCOc2ccccc2F)CC1 ?
OUTPUT: -1.48

INPUT: Quick one: Percent Effect for Cc1cccc(-c2noc(CN3CCCC3Cn3cccn3)n2)c1 (stereo unspecified) ?
OUTPUT: 28.6

INPUT: Quick one: Percent Effect for Cc1ccccc1-c1cncc(C2CCN(C)CC2)n1 ?
OUTPUT: -4.06
